- PROTOCOL NOTES: Solubility estimated by solvent aliquot addition at ambient temperature
- Type: physicochemical
- RECORDED CONDITIONS: organic solvent or mixture, thermodynamic from solid, MeOH
READOUT LABEL: solubility

## Task Quick one: solubility for Cc1cc(Nc2ncnn3ccc(C4CCN(C(=O)/C=C/CN(C)C)CC4)c23)ccc1Oc1ccn2ncnc2c1 [Compound 1 Form A] ?
## Result > 116 mg/mL

----------
- PROTOCOL NOTES: Solubility estimated by solvent aliquot addition at ambient temperature
- Assay type: physicochemical
- RECORDED CONDITIONS: organic solvent or mixture, thermodynamic from solid, 30:70 DMAc/MTBE v/v
READOUT LABEL: solubility (mg/mL)
Field format: number, assumed mg/mL, no unit text.

## Task Field request: solubility | item: Cc1cc(Nc2ncnn3ccc(C4CCN(C(=O)/C=C/CN(C)C)CC4)c23)ccc1Oc1ccn2ncnc2c1 [Compound 1 Form A]
## Result 29

----------
- PROTOCOL NOTES: Solubility estimated by solvent aliquot addition at ambient temperature
- Assay type: physicochemical
- RECORDED CONDITIONS: aqueous with cosolvent or surfactant or cyclodextrin, thermodynamic from solid, 10:90 dioxane/water v/v
READOUT LABEL: solubility

## Task Return reported solubility; argument: Cc1cc(Nc2ncnn3ccc(C4CCN(C(=O)/C=C/CN(C)C)CC4)c23)ccc1Oc1ccn2ncnc2c1 [Compound 1 Form A]
## Result < 1000 µg/mL

----------
- PROTOCOL NOTES: Solubility estimated by solvent aliquot addition at ambient temperature
- Type: physicochemical
- RECORDED CONDITIONS: organic solvent or mixture, thermodynamic from solid, 30:70 EtOH/toluene v/v
READOUT LABEL: solubility

## Task Entry under review: Cc1cc(Nc2ncnn3ccc(C4CCN(C(=O)/C=C/CN(C)C)CC4)c23)ccc1Oc1ccn2ncnc2c1 [Compound 1 Form A] . Reported solubility?
## Result > 88 mg/mL

----------
- PROTOCOL NOTES: Solubility estimated by solvent aliquot addition at ambient temperature
- Format: physicochemical
- RECORDED CONDITIONS: aqueous with cosolvent or surfactant or cyclodextrin, thermodynamic from solid, 50:50 dioxane/water v/v
- Text: Solubilities were estimated by solvent aliquot addition at ambient temperature and reported to the nearest whole number; if complete dissolution was achieved by one aliquot addition, the value is reported as “>”; if solids were present, the value is reported as “<”. The actual solubility may be larger than the value calculated because of the use of solvent aliquots that were too large or due to a slow rate of dissolution.
READOUT LABEL: solubility (mg/mL)
Quick reminder: number only, in mg/mL, skip the unit.

## Task Param item = Cc1cc(Nc2ncnn3ccc(C4CCN(C(=O)/C=C/CN(C)C)CC4)c23)ccc1Oc1ccn2ncnc2c1 [Compound 1 Form A] ; retrieve measured solubility.
## Result 29

----------
- PROTOCOL NOTES: Solubility estimated by solvent aliquot addition at ambient temperature
- Format: physicochemical
- RECORDED CONDITIONS: aqueous with cosolvent or surfactant or cyclodextrin, thermodynamic from solid, 50:50 MeOH/water v/v
READOUT LABEL: solubility (µg/mL)
Please state the figure in µg/mL; there is no need to write the unit.

## Task Entry Cc1cc(Nc2ncnn3ccc(C4CCN(C(=O)/C=C/CN(C)C)CC4)c23)ccc1Oc1ccn2ncnc2c1 [Compound 1 Form A] : reported solubility = ?
## Result 4000

The reported measurements were obtained from patent US20250276984A1.
